All values here come from patent US12448378B2.

Record form. Attribute: pIC50. Fill in for each entry.
- measured.target: human ATR kinase (ATR/ATRIP (h)) (Homo sapiens (Human), UniProt Q13535)
- Sequence (Q13535 whole entry): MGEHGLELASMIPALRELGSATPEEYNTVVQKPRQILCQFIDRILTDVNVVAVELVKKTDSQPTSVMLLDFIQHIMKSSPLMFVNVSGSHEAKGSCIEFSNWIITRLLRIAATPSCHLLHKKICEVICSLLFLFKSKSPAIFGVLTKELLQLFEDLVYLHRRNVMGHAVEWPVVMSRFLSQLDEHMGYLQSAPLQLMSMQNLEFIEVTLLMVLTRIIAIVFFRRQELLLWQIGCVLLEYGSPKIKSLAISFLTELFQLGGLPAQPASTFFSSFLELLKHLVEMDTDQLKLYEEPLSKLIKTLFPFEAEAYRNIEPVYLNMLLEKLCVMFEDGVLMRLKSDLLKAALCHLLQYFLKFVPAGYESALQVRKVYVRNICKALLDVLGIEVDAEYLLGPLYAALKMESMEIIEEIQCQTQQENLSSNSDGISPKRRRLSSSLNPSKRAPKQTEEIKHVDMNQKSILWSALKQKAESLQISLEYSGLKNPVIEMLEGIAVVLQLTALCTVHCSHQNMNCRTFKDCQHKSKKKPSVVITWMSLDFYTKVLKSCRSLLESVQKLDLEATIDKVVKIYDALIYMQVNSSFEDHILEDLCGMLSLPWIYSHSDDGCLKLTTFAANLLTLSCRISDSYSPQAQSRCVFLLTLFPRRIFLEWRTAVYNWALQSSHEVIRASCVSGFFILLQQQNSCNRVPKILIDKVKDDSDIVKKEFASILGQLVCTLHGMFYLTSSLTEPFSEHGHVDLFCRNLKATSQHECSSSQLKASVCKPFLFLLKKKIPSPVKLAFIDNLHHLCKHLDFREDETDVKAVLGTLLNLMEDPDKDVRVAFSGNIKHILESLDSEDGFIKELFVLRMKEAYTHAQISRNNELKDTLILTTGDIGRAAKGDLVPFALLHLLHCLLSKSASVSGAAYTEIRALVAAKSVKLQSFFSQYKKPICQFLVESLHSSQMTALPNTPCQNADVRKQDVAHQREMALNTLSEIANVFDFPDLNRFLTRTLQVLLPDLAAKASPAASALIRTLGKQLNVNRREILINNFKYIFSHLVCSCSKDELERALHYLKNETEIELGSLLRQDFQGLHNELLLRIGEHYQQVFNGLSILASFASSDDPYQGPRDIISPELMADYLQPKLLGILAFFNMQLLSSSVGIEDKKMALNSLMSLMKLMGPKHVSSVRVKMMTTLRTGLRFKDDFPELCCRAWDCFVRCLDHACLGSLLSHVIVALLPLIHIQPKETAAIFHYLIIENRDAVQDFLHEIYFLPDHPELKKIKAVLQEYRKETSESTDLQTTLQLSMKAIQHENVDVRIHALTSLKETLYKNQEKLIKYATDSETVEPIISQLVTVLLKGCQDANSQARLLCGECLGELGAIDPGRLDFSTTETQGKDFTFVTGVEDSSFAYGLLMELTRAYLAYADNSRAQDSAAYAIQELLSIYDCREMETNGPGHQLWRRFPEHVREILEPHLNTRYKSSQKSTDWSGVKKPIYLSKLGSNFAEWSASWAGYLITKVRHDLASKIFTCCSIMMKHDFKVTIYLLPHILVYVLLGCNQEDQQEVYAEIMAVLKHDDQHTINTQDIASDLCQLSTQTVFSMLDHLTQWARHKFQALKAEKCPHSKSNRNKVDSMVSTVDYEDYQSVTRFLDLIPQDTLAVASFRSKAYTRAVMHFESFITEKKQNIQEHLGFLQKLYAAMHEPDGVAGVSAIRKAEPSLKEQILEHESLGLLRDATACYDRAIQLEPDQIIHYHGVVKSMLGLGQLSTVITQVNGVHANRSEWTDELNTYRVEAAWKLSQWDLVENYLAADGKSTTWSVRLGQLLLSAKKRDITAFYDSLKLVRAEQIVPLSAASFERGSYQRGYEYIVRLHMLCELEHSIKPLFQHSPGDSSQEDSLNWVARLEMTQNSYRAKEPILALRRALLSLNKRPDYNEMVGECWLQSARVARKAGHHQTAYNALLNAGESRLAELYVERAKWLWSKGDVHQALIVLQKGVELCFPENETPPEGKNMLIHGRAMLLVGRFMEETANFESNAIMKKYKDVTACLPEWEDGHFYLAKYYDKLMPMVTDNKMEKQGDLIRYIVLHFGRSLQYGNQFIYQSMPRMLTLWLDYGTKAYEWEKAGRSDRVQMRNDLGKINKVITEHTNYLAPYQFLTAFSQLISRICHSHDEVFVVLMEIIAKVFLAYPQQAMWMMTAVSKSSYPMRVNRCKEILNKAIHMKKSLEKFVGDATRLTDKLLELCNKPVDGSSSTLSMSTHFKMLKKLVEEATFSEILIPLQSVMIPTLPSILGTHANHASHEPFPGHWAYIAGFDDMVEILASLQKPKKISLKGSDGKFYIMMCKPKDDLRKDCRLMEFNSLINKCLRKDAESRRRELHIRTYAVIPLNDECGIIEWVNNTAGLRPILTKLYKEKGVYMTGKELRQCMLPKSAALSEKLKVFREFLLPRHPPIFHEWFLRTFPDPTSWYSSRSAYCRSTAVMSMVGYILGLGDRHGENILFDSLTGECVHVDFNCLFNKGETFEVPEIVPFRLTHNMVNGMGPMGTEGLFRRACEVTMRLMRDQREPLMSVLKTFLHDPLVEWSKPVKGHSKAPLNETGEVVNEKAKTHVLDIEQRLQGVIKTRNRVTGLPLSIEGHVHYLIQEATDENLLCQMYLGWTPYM
- Sequence (Q8WXE1 whole entry partner): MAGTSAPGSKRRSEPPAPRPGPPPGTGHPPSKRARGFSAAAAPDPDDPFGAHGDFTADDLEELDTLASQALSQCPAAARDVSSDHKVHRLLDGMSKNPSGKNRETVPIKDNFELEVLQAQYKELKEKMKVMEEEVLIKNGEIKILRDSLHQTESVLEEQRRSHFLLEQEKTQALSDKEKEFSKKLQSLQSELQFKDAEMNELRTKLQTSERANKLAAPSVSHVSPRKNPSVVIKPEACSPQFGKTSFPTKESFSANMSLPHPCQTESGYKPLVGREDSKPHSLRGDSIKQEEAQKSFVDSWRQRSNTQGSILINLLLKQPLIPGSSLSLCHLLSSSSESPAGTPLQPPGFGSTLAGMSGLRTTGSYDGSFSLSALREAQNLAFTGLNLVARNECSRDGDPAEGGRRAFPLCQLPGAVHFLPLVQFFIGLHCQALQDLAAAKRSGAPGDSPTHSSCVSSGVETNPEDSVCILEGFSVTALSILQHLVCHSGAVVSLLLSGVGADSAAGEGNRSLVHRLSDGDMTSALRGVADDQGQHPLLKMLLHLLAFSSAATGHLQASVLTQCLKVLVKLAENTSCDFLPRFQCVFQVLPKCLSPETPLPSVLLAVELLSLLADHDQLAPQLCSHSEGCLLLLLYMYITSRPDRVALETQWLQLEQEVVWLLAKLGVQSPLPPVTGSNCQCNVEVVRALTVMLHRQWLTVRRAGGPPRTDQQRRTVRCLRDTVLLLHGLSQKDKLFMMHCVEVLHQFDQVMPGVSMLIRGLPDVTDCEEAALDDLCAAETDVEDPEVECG
- experiment: ATR enzyme activity in vitro (HTRF kinase assay)
- conditions.used: 10 μM ATP, GST-cMyc-p53 substrate
Give bare numbers, as −log10 of the molar value.

In: Form field: reported pIC50 of C[C@@H]1COCCN1c1cc(-c2cccn2C)cc(-c2c(F)ncc3[nH]ccc23)n1 [Compound 5]
Out: 6.47

# per-item lookup of pIC50; items listed below
1. C[C@@H]1COCCN1c1cc(-c2ccnn2C)cc(-c2c(F)ncc3[nH]ccc23)n1 [Compound 15]
2. Cc1ncccc1-c1cc(-c2c(F)ncc3[nH]ccc23)nc(N2CCOC[C@H]2C)c1 [Compound 7]

Out:
6.69
7.11

In: Form field: reported pIC50 of Cc1cnn(C)c1-c1cc(-c2c(F)ncc3[nH]ccc23)nc(N2CCOC[C@H]2C)c1 [Compound 14]
Out: 7.24

====

- experiment: In vivo pharmacokinetics in female Balb/c Nude mice
- conditions.used: mouse, plasma, intravenous 1 mg/kg
test.readout: AUC(0-t)
Returns: string containing the numeric result and its unit.

In: Form field: reported AUC(0-t) of `Cc1nnn(C)c1-c1cc(-c2c(F)ncc3[nH]ccc23)nc(N2CCOC[C@H]2C)c1`
Out: 2.55 µM·h

====

- experiment: In vivo pharmacokinetics in female Balb/c Nude mice
- conditions.used: mouse, plasma, oral 10 mg/kg
test.readout: Cmax (µM)
Give bare numbers, in µM.

In: Form field: reported Cmax of `Cc1nnn(C)c1-c1cc(-c2c(F)ncc3[nH]ccc23)nc(N2CCOC[C@H]2C)c1`
Out: 9.56

====

Record form. Attribute: pIC50. Fill in for each entry.
- System: tumor cell line LoVo
- experiment: In vitro LoVo cell proliferation inhibition (CellTiter-Glo)
- Type: cell-based
- conditions.used: Homo sapiens, LoVo cells
One number for each entry, as −log10 of the molar value.

In: Form field - read-out: pIC50; system: tumor cell line LoVo; submitted item: Cc1nnn(C)c1-c1cc(-c2c(F)ncc3[nH]ccc23)nc(N2CCOC[C@H]2C)c1 [Compound 1]
Out: 6.99

Further cases:
In: Form field - read-out: pIC50; system: tumor cell line LoVo; submitted item: Cc1nnc(C)n1-c1cc(-c2c(F)ncc3[nH]ccc23)nc(N2CCOC[C@H]2C)c1 [Compound 2]
Out: 6.63

====

- experiment: In vivo pharmacokinetics in female Balb/c Nude mice
- conditions.used: mouse, plasma, oral 25 mg/kg
test.readout: half-life (h)
Give bare numbers, in h.

In: Form field: reported half-life of `Cc1nnn(C)c1-c1cc(-c2c(F)ncc3[nH]ccc23)nc(N2CCOC[C@H]2C)c1`
Out: 3.8

====

- experiment: In vivo pharmacokinetics in female Balb/c Nude mice
- conditions.used: mouse, intravenous 1 mg/kg, plasma
test.readout: C0 (nM)
Give bare numbers, in nM.

In: Form field: reported C0 of `Cc1nnn(C)c1-c1cc(-c2c(F)ncc3[nH]ccc23)nc(N2CCOC[C@H]2C)c1`
Out: 2800

====

- experiment: In vivo pharmacokinetics in female Balb/c Nude mice
- conditions.used: mouse, plasma, intravenous 1 mg/kg
test.readout: half-life (h)
One number for each entry, in h.

In: Form field: reported half-life of Cc1nnn(C)c1-c1cc(-c2c(F)ncc3[nH]ccc23)nc(N2CCOC[C@H]2C)c1 [Compound 1]
Out: 1.32
